assay: chemical genetic growth profiling, strain panel (AID 1159580);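 note: tested at 20 µM; growth read once vehicle control cultures reached saturation at 30 °C; 1 = growth at the plate median or of vehicle wells; lower values mean less growth of the strain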; details: S. cerevisiae deletion strains, growth OD, locus YJR043C, strain POL32, active compounds read low
Among all 5,500 compounds or so, about 2,000 (36%) were called active. Roughly 18% stayed inconclusive and do not appear here. This is one part of the list.
normalized growth listing for selected molecules.
Returns: the value as a bare number; no unit string appended.

Field: example entries. Status: answers known.
>>> reported_value("CC(C(=O)O)c1ccc(N2Cc3ccccc3C2=O)cc1 (stereo unspecified)")
1.02
>>> reported_value("C[C@]12C=CC(=O)C=C1CCC1C2C(=O)C[C@@]2(C)C1CC[C@]2(O)C(=O)CO (stereo partly specified)")
1
>>> reported_value("S=c1nc(-c2ccccc2)[nH][nH]1")
0.99
>>> reported_value("COc1ccc2c(=O)c(CC(=O)O)coc2c1")
1.05
>>> reported_value("CNC(=O)CSP(=S)(OC)OC")
0.998

Lab note: next molecule to report on.
Task item: // returns reported normalized growth for input Cc1cccc(N2C(=O)C3C4C=CC(C4)C3C2=O)n1 (stereo unspecified)
Reply: 1.01

* * *

Each item that follows carries a reported normalized growth.
assay: chemical genetic growth profiling, strain panel (AID 1159580); conditions: S. cerevisiae deletion strains, growth OD, locus YLR258W, strain gsy2, active compounds read low
About 2,000 (36%) of roughly 5,500 compounds were called active. About 18% were inconclusive and are not listed. Some of the results follow.
Kindly provide the number alone.

>>> reported_value("CCCCC(=O)O[C@H]1CCC2C3CCc4cc(O)ccc4C3CC[C@@]21C (stereo not given in full)")
1
>>> reported_value("CC(=O)Oc1ccc2c(c1)CCC1C2CCC2(C)C1CC(OC(C)=O)C2OC(C)=O (stereo not given)")
0.988
>>> reported_value("CC(=O)OC1CCC2C3CCc4cc(O)ccc4C3CCC12C (stereo not given)")
0.978
>>> reported_value("CC(=O)Oc1ccc2c(c1)CCC1C2CC[C@@]2(C)C1CC[C@@H]2OC(C)=O (stereo not given in full)")
0.991

Could you now look at the following compound, please?
Task item: # normalized growth lookup, item OC[C@@H](O)C(O[C@@H]1O[C@H](CO)[C@H](O)[C@H](O)[C@H]1O)[C@H](O)[C@@H](O)CO (stereo not given in full)
Reply: 0.989

* * *

Each entry below carries its reported normalized growth.
assay: chemical genetic growth profiling, strain panel (AID 1159580); details: S. cerevisiae deletion strains, growth OD, locus YPL055C, strain LGE1, active compounds read low
Hit rate of the full screen: of about 5,500 compounds, about 2,000 (36%) were called active. Another 18% or so got no clear call; they are omitted. The list shows a part of the results.
Respond with the number and no other words.

Guide cases for normalized growth, answers given:
>>> reported_value("CCCN(CCC)[C@@H]1CCc2c(F)ccc(O)c2C1")
1.01
>>> reported_value("CC(=O)/C(=C\\N(C)C)Sc1ccc(Cl)cc1")
0.933
>>> reported_value("Cc1ccc(S(=O)(=O)Oc2ccc(CC#N)cc2)cc1")
0.958

Task item: So what's the measured normalized growth for this one? CCN(C(=S)Nc1ccc(OC)cc1)c1ccccc1
Reply: 0.89

Task item: Could you tell me which normalized growth is on file for CCSC(SCC)[C@H](O)[C@@H](O)[C@H](O)CO ?
Reply: 1

Task item: # query: normalized growth of entry COc1cccc(NC(=S)NCc2ccco2)c1
Reply: 0.976

Task item: // normalized growth lookup, key: Cc1cc(N=CNO)c2ccccc2n1
Reply: 1.04

Task item: Give the measured normalized growth of c1ccc2c(c1)-c1cccc3cccc-2c13 .
Reply: 0.666

* * *

test: chemical genetic growth profiling, strain panel (AID 1159580); conditions: S. cerevisiae deletion strains, growth OD, locus YNL067W, strain RPL9B
About 2,000 (36%) of roughly 5,500 compounds were called active. Roughly 18% stayed inconclusive and do not appear here. No stated cut-off is given here; in the data, active means normalized growth mostly below about 0.91 (no sharp cut-off); inconclusive means no clear call, values can overlap the other calls; inactive means mostly above about 0.92. The list shows a part of the results.
Hello, when you answer, please use one of the following outcomes: Yes for active, No for inactive

Some solved cases for reference:
>>> label("C[C@]12C=CC(=O)C=C1CCC1C2CC[C@]2(C)C(=O)CCC12 (some centres not stated)")
"No"
>>> label("CCN(CC)CCNC(=O)COc1ccc(OC)cc1")
"No"
>>> label("O=c1c(-c2ccc3c(c2)OCO3)coc2cc(O)ccc12")
"No"
>>> label("CCCC(=O)Nc1ncnc2c1ncn2C1O[C@@H]2COP(=O)(O)O[C@H]2[C@H]1OC(=O)CCC (some centres not stated)")
"No"
>>> label("CCCCC/C=C\\C/C=C\\C/C=C\\C/C=C\\CCCC(=O)O")
"No"
>>> label("CCOc1nc2cccc(C(=O)OC(C)OC(=O)OC3CCCCC3)c2n1Cc1ccc(-c2ccccc2-c2nn[nH]n2)cc1 (configuration not stated)")
"No"
>>> label("NCCS")
"No"
>>> label("COc1ccc2ccc(=O)oc2c1CC=C(C)C")
"Yes"

Attention now turns to another entry.
Task item: In this assay, the call recorded for C[C@]12C=CC(=O)C=C1CCC1C2C(=O)C[C@@]2(C)C1CC[C@]2(O)C(=O)CO (some centres not stated) was what?
Reply: No

* * *

test: chemical genetic growth profiling, strain panel (AID 1159580);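 note: tested at 20 µM; growth read once vehicle control cultures reached saturation at 30 °C; 1 = growth at the plate median or of vehicle wells; lower values mean less growth of the strain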; conditions: S. cerevisiae deletion strains, growth OD, locus YOR119C, strain RIO1
The whole screen tested about 5,500 compounds, of which about 2,000 (36%) were called active. About 18% were inconclusive and are not listed. No stated cut-off is given here; in the data, active means normalized growth mostly below about 0.91 (no sharp cut-off); inconclusive means no clear call, values can overlap the other calls; inactive means mostly above about 0.92. Some of the results follow.
Would you mind answering with one of these outcomes? active, inactive

Study these solved cases before continuing.
>>> label("FC(F)(F)c1ccc(NC(=S)Nc2ccc(C(F)(F)F)cc2Cl)c(Cl)c1")
"inactive"
>>> label("CC1CCc2c(sc3ncnc(Sc4ccccc4)c23)C1 (configuration not stated)")
"inactive"
>>> label("CCCCc1ccc(N=CNO)c(C)c1")
"active"
>>> label("CCCCCc1ccc(S(=O)(=O)Nc2ncc(C)cc2Br)cc1")
"inactive"
>>> label("CSc1sc(-c2ccn[nH]2)c(-c2ccccc2)c1C#N")
"inactive"

Task item: Give the logged outcome of this assay for the following compound: NNC(=O)COc1ccc(C2SCCS2)cc1
Reply: active

Task item: Status in this test for CN(C)c1nc(=S)ss1 ?
Reply: active

* * *

Quick list: normalized growth per entry.
assay: chemical genetic growth profiling, strain panel (AID 1159580);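 note: tested at 20 µM; growth read once vehicle control cultures reached saturation at 30 °C; 1 = growth at the plate median or of vehicle wells; lower values mean less growth of the strain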; conditions: S. cerevisiae deletion strains, growth OD, locus YNL161W, strain CBK1, active compounds read low
Among all 5,500 compounds or so, about 2,000 (36%) were called active. Inconclusive results (about 18%) are left out. Some of the results follow.
Write the value as a bare number.

Task item: Fill in the blank: the reported normalized growth of N#C/C(=C\c1ccc(C(F)(F)F)cc1)c1ccc(O)cc1 is ____.
Reply: 0.967

Task item: Using the record for O=C(O)c1cccc2cccc(C(=O)O)c12 , report its normalized growth.
Reply: 0.0944

Task item: Recorded normalized growth of FC(F)(F)c1ccc(C2Sc3ccccc3N=C3c4ccccc4CC32)cc1 (configuration not stated) , please.
Reply: 1.03

Task item: Given the entry CCOC(=O)C1C(c2ccc(Br)cc2)C(C(=O)OCC)C(O)(C(F)(F)F)NC1(O)C(F)(F)F (configuration not stated) , report its measured normalized growth.
Reply: 0.999

Task item: Please give the measured normalized growth for this molecule: O=C(c1ccc(Cl)cc1)N1CCN(c2ccc(C(F)(F)F)cn2)CC1
Reply: 0.994

Task item: Bench note: what normalized growth did Cc1oc(-c2ccc(Cl)cc2)cc1C(=O)N1CCN(c2ccc(C(F)(F)F)cn2)CC1 show?
Reply: 0.975

Task item: // lookup normalized growth for N#C/C(=N/Nc1ccc(Cl)cc1)C(=O)C1CC1
Reply: 0.86

Task item: Which normalized growth value belongs to O=C(NNc1c(Cl)cccc1Cl)c1ccc([N+](=O)[O-])o1 ?
Reply: 0.966

* * *

test: chemical genetic growth profiling, strain panel (AID 1159580);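 note: tested at 20 µM; growth read once vehicle control cultures reached saturation at 30 °C; 1 = growth at the plate median or of vehicle wells; lower values mean less growth of the strain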; details: S. cerevisiae deletion strains, growth OD, locus YHR030C, strain SLT2
Hit rate of the full screen: of about 5,500 compounds, about 2,000 (36%) were called active. Roughly 18% stayed inconclusive and do not appear here. No stated cut-off is given here; in the data, active means normalized growth mostly below about 0.91 (no sharp cut-off); inconclusive means no clear call, values can overlap the other calls; inactive means mostly above about 0.92. The list shows a part of the results.
The categories you may choose from are active, inactive

>>> label("COc1ccc(/C(C#N)=C2C=C/C(=N/O)C(Cl)=C\\2)cc1")
"inactive"

Task item: Record lookup: outcome of this test for O=[N+]([O-])c1cc(C(F)(F)F)ccc1NCCCn1ccnc1 ?
Reply: inactive

Task item: Per the assay record, what outcome was assigned to Cc1nc(C(F)(F)F)ccc1C(=O)Sc1nnc(-c2ccc(C(F)(F)F)nc2C)o1 ?
Reply: active

Task item: Tell me the recorded outcome of this test for O=C(OCc1ccc(Oc2ccc(Cl)cc2Cl)c([N+](=O)[O-])c1)c1ccc([N+](=O)[O-])o1 .
Reply: inactive

Task item: Each compound tested received a call. Report the one for CC1=C2[C@](C)(C=CC1=O)C[C@H](O)[C@H]1[C@H](C)C(=O)O[C@]21C .
Reply: inactive

Task item: Tell me the recorded outcome of this test for CC(=O)O[C@H]1CC2CCC3C(CC[C@@]4(C)C3C[C@H]([N+]3(C)CCCCC3)[C@@H]4OC(C)=O)[C@@]2(C)C[C@@H]1[N+]1(C)CCCCC1 (some centres not stated) .
Reply: inactive

Task item: Call for entry N/C(=N/OC(=O)C(Cl)Cl)c1cccc(Cl)c1Cl :
Reply: inactive

Task item: What did the test return for O=C(Oc1ccc(F)cc1)c1cccs1 ?
Reply: inactive
